Below: a set of entries, each annotated with reported IC50.
- system: UniProtKB P12931
- Sequence (P12931 whole entry, looked up): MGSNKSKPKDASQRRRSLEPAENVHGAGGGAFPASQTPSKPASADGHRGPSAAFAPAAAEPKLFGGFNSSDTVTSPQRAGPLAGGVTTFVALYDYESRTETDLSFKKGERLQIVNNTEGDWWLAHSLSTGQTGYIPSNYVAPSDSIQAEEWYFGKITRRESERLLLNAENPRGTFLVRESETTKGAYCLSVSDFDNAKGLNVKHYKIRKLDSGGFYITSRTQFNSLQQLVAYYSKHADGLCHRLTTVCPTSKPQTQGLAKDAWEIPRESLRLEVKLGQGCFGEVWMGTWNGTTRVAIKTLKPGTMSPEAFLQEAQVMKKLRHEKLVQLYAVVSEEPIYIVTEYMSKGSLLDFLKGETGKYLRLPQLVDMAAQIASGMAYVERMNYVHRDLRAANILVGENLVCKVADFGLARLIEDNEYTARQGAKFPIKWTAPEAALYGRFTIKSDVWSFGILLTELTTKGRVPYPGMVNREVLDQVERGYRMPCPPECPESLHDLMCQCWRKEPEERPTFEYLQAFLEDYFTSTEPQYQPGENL

molecule: C#Cc1cc(Nc2cc(Oc3ccc(NC(=O)Nc4cc(C(C)(C)C)cc(C(N)=O)c4OC)c4ccccc34)ccn2)cc(C(=O)NCCOCCOCCOC)c1 [Example 53]
IC50: 46 nM
--
molecule: COc1c(NC(=O)Nc2ccc(Oc3ccnc(Nc4ccccc4)c3)c3ccccc23)cc(C(C)(C)C)cc1C(=O)NC1COC1 [Example 75]
IC50: 97 nM
--
molecule: COCCOCCOCCOc1cc(Nc2cc(Oc3ccc(NC(=O)Nc4cc(C(C)(C)C)cc(C(=O)NCCN(C)C)c4OC)c4ccccc34)ccn2)cc(OC)c1 [Example 76]
IC50: 31 nM
